System tested: Tubulin (Homo sapiens) (UniProt P68371+Q9H4B7+P0DPH7+P68366+Q13509+Q71U36+P04350+Q3ZCM7+P07437+P68363+Q9BQE3+Q6PEY2+Q13885+Q9BVA1+Q9BUF5)
Test method notes: Binding affinity to microtubules, activity expressed as log 1/ID50 of compound/ID50 of paclitaxel
Type: protein-complex assay
Reported Log 1/ratio by item:
# print the numeric value only

- Cpd smiles: "CC(=O)O[C@H]1C(=O)[C@@]2(C)[C@H]([C@H](OC(=O)c3ccccc3)[C@]3(O)C[C@H](OC(=O)[C@H](O)[C@@H](NC(=O)c4ccccc4)c4ccc(F)cc4)C(C)=C1C3(C)C)[C@]1(OC(C)=O)CO[C@@H]1C[C@@H]2O"
  Experimental endpoint: "Log 1/ratio"
  Value: -0.0414
- Cpd smiles: "CC(=O)O[C@@]12CO[C@@H]1C[C@H](O)[C@@]1(C)C(=O)[C@H](O)C3=C(C)[C@@H](OC(=O)[C@@H](O)[C@H](NC(=O)c4ccccc4)c4ccccc4)C[C@@](O)([C@@H](OC(=O)c4ccccc4)[C@H]21)C3(C)C"
  Experimental endpoint: "Log 1/ratio"
  Value: -0.602

# next molecule below
Recorded result, CC(=O)O[C@H]1C(=O)[C@@]2(C)[C@H]([C@H](OC(=O)c3ccccc3)[C@]3(O)C[C@H](OC(=O)[C@H](O)[C@@H](NC(=O)C(C)=O)c4ccccc4)C(C)=C1C3(C)C)[C@]1(OC(C)=O)CO[C@@H]1C[C@@H]2O , Log 1/ratio: -0.544

Values from ChEMBL document CHEMBL1127973
